ASSAYED_TARGET: Aurora kinase B (Homo sapiens)
Sequence (Q96GD4 whole entry): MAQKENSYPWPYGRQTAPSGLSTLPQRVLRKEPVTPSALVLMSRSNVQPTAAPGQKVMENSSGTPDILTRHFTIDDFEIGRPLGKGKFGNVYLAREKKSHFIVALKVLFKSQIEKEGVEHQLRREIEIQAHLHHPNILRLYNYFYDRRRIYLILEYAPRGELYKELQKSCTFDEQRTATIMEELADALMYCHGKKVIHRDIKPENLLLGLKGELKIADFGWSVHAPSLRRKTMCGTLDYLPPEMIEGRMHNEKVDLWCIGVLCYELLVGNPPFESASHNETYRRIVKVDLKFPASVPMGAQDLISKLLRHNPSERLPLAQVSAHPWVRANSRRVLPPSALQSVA
ASSAY_NOTES: Inhibition of recombinant Aurora B (unknown origin) using TAMRA-PKAtide as substrate after 1 hr by fluorescence polarization assay
pIC50: −log10 of the molar value.
RESULT_TYPE: pIC50

INSERT INTO measurements (mol, recorded_value) VALUES
  ('CNC(=O)Nc1sc2c(C(C)C)cc(NS(=O)(=O)c3ccn(C)n3)cc2c1C(N)=O', 7.77),
  ('CNC(=O)Nc1sc2c(C(C)C)cc(NS(=O)(=O)c3cccc(C)c3)cc2c1C(N)=O', 7.34),
  ('CNC(=O)Nc1sc2c(C(C)C)cc(NS(=O)(=O)c3cccs3)cc2c1C(N)=O', 7.54),
  ('CNC(=O)Nc1sc2c(C(C)C)cc(NS(=O)(=O)c3ccccc3)cc2c1C(N)=O', 7.46),
  ('CNC(=O)Nc1sc2c(C(C)C)cc(NS(=O)(=O)c3cc(C)cs3)cc2c1C(N)=O', 7.32),
  ('CNC(=O)Nc1sc2c(C(C)C)cc(NS(=O)(=O)N(C)C)cc2c1C(N)=O', 7.64),
  ('CC(C)c1cc(NS(=O)(=O)c2ccccc2)cc2c(C(N)=O)c(NC(=O)C3CC3)sc12', 6.38),
  ('CCCNS(=O)(=O)Nc1cc(C(C)C)c2sc(NC(=O)NC)c(C(N)=O)c2c1', 7.96),
  ('CCS(=O)(=O)Nc1cc(C(C)C)c2sc(NC(=O)NC)c(C(N)=O)c2c1', 7.42);
